- System: BALL-1
- Protocol Text: cytotoxicity against human BALL1 cells by MTT assay
- Type: functional, cell-based
Quantity Measured: IC50 (nM)
Respond with the bare value in nM.

// known answers, use as guide
>>> measured("CCN(CC)c1ccc2cc(NC(=O)OCCCCCCCCCCCC(=O)[C@]34O[C@H]3C(C)(O)NC4=O)c(=O)oc2c1 (some centres undefined)")
1560
>>> measured("C\\C=C(/C=C(C)/C=C/CC/C=C(\\C)C(=O)[C@]12O[C@H]1C(C)(O)NC2=O)C(=O)OC (some centres undefined)")
3820
>>> measured("CCCCCCCCCCCC(=O)[C@]12O[C@H]1C(C)(O)NC2=O (some centres undefined)")
1650

Consider now this further compound.
q: What IC50 appears in the records for this compound with BALL-1? CC1(O)NC(=O)[C@@]2(C(=O)CCCCCCCCCCCNC(=O)CCCC[C@@H]3SC[C@@H]4NC(=O)N[C@@H]43)O[C@@H]12 (some centres undefined)
a: 48300

Cited source: ChEMBL document CHEMBL1157191
